Biological target: N-MdmX (Homo sapiens, UniProt O15151)
Sequence (O15151 22-110): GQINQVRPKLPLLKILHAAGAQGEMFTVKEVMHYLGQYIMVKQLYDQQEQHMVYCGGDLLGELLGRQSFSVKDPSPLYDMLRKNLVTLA
Test: Isothermal titration calorimetry (ITC) assay
Where no end group is shown, it is not given here.

# substance, measurementUnits, Kd
measured = [
    ("WKLLPEN [p53p^ΔF19]", "µM", 20.1),
]
